I'd appreciate it if you could supply half-life values for the items below.
- Method: Plasma stability, mouse plasma
- Measurement setup: mouse, plasma, Flag (half-life, assay exceeded), mouse plasma, 37° C.
Bridge positions count the residues as written; N and C are the ends. Square brackets hold non-standard residues; d marks the D form. Peptide text beside a SMILES is read from it.

Value of half-life reported for the compound CC(=O)N1CCC[C@H]1C(=O)N[C@@H](CO)C(=O)N[C@@H](CCCNC(=N)N)C(=O)N[C@@H](CC(C)C)C(=O)N[C@H]1CCC(=O)NCCCC[C@@H](C(=O)N[C@@H](CCCNC(=N)N)C(=O)N[C@@H](CCCNC(=N)N)C(=O)N[C@@H](CC(C)C)C(=O)N[C@H](C(=O)N[C@@H](CCC(=O)O)C(N)=O)[C@@H](C)O)NC(=O)[C@H](CC(C)C)NC(=O)[C@H](CCC(=O)O)NC(=O)[C@H](CCC(=O)O)NC1=O [SD15806] (Ac-PSRLEEELKRRLTE-NH2; lactam 5-9) is > 6 h

Value of half-life reported for the compound CC(=O)N1CCC[C@H]1C(=O)N[C@@H](CO)C(=O)N[C@@H](CCCNC(=N)N)C(=O)N[C@@H](CC(C)C)C(=O)N[C@@H](CCC(=O)O)C(=O)N[C@H]1CCC(=O)NCCCC[C@H](C(=O)N[C@@H](CCCNC(=N)N)C(=O)N[C@@H](CC(C)C)C(=O)N[C@H](C(=O)N[C@@H](CCC(=O)O)C(N)=O)[C@@H](C)O)NC(=O)[C@H](CCCNC(=N)N)NC(=O)[C@H](CC(C)C)NC(=O)[C@H](CCC(=O)O)NC1=O [SD15808] (Ac-PSRLEEELR[dK]RLTE-NH2; lactam 6-10) is > 6 h

Value of half-life reported for the compound CC(=O)N[C@@H](CO)C(=O)N[C@@H](CCCNC(=N)N)C(=O)N[C@@H](CC(C)C)C(=O)N[C@@H](CCC(=O)O)C(=O)N[C@H]1CCC(=O)NCCCC[C@@H](C(=O)N[C@@H](CCCNC(=N)N)C(=O)N[C@@H](CC(C)C)C(=O)N[C@H](C(=O)N[C@@H](CCC(=O)O)C(N)=O)[C@@H](C)O)NC(=O)[C@H](CCCNC(=N)N)NC(=O)[C@H](CC(C)C)NC(=O)[C@H](CCC(=O)O)NC1=O [SD15194] (Ac-SRLEEELRKRLTE-NH2; lactam 5-9) is > 24 h

Value of half-life reported for the compound CC(=O)N[C@@H](CO)C(=O)N[C@@H](CCCNC(=N)N)C(=O)N[C@@H](CC(C)C)C(=O)N[C@@H](CCC(=O)O)C(=O)N[C@H]1CC(=O)NCCCC[C@@H](C(=O)N[C@@H](CCCNC(=N)N)C(=O)N[C@@H](CC(C)C)C(=O)N[C@H](C(=O)N[C@@H](CCC(=O)O)C(N)=O)[C@@H](C)O)NC(=O)[C@H](CCCNC(=N)N)NC(=O)[C@H](CC(C)C)NC(=O)[C@H](CCC(=O)O)NC1=O [SD15196] (Ac-SRLEDELRKRLTE-NH2; lactam 5-9) is > 24 h

More entries:
Value of half-life reported for the compound CC(=O)N1CCC[C@H]1C(=O)N[C@@H](CO)C(=O)N[C@@H](CCCNC(=N)N)C(=O)N[C@@H](CC(C)C)C(=O)N[C@@H](CCC(=O)O)C(=O)N[C@H]1CCCCNC(=O)CC[C@@H](C(=O)N[C@@H](CCCNC(=N)N)C(=O)N[C@@H](CC(C)C)C(=O)N[C@H](C(=O)N[C@@H](CCC(=O)O)C(N)=O)[C@@H](C)O)NC(=O)[C@H](CCCNC(=N)N)NC(=O)[C@H](CC(C)C)NC(=O)[C@H](CCC(=O)O)NC1=O [SD15805] (Ac-PSRLEKELRERLTE-NH2; lactam 6-10) is > 6 h

---

- Method: Pharmacokinetic study in mouse, intravenous bolus, plasma LC-MS/MS, non-compartmental analysis
- Measurement setup: female, C57BL/6NRj, plasma, iv, 3 mg/kg
Bridge positions count the residues as written; N and C are the ends. Peptide text beside a SMILES is read from it.
Reported property: half-life (min)
Answers are plain numbers, in min.

Value of half-life reported for the compound CC(=O)N1CCC[C@H]1C(=O)N[C@@H](CO)C(=O)N[C@@H](CCCNC(=N)N)C(=O)N[C@@H](CC(C)C)C(=O)N[C@@H](CCC(=O)O)C(=O)N[C@H]1CCC(=O)NCCCC[C@@H](C(=O)N[C@@H](CCCNC(=N)N)C(=O)N[C@@H](CC(C)C)C(=O)N[C@H](C(=O)N[C@@H](CCC(=O)O)C(N)=O)[C@@H](C)O)NC(=O)[C@H](CCCNC(=N)N)NC(=O)[C@H](CC(C)C)NC(=O)[C@H](CCC(=O)O)NC1=O [SD15341] (Ac-PSRLEEELRKRLTE-NH2; lactam 6-10) is 6.69

---

- Method: Plasma stability, human plasma
- Measurement setup: human plasma, 37° C., timepoint 24 h
Bridge positions count the residues as written; N and C are the ends. Peptide text beside a SMILES is read from it.
Reported property: Tube 2 (compound concentration)
Give bare numbers.

Past entries and their recorded results:
Value of Tube 2 (compound concentration) reported for the compound CC(=O)N[C@@H](CO)C(=O)N[C@@H](CCCNC(=N)N)C(=O)N[C@@H](CC(C)C)C(=O)N[C@@H](CCC(=O)O)C(=O)N[C@H]1CCC(=O)NCCCC[C@@H](C(=O)N[C@@H](CCCNC(=N)N)C(=O)N[C@@H](CCCNC(=N)N)C(=O)N[C@@H](CC(C)C)C(=O)N[C@H](C(=O)N[C@@H](CCC(=O)O)C(N)=O)[C@@H](C)O)NC(=O)[C@H](CC(C)C)NC(=O)[C@H](CCC(=O)O)NC1=O [SD15192] (Ac-SRLEEELKRRLTE-NH2; lactam 5-8) is 0.036

Value of Tube 2 (compound concentration) reported for the compound CC(=O)N[C@@H](CO)C(=O)N[C@@H](CCCNC(=N)N)C(=O)N[C@@H](CC(C)C)C(=O)N[C@@H](CCC(=O)O)C(=O)N[C@H]1CCC(=O)NCCCC[C@@H](C(=O)N[C@@H](CCCNC(=N)N)C(=O)N[C@@H](CC(C)C)C(=O)N[C@H](C(=O)N[C@@H](CCC(=O)O)C(N)=O)[C@@H](C)O)NC(=O)[C@H](CCCNC(=N)N)NC(=O)[C@H](CC(C)C)NC(=O)[C@H](CCC(=O)O)NC1=O [SD15194] (Ac-SRLEEELRKRLTE-NH2; lactam 5-9) is 1.377

Value of Tube 2 (compound concentration) reported for the compound CC(=O)N[C@@H](CO)C(=O)N[C@@H](CCCNC(=N)N)C(=O)N[C@@H](CC(C)C)C(=O)N[C@@H](CCC(=O)O)C(=O)N[C@@H](CCC(=O)O)C(=O)N[C@@H](CCC(=O)O)C(=O)N[C@@H](CC(C)C)C(=O)N[C@@H](CCCNC(=N)N)C(=O)N[C@H]1CCCCNC(=O)CC[C@@H](C(N)=O)NC(=O)[C@H]([C@@H](C)O)NC(=O)[C@H](CC(C)C)NC(=O)[C@H](CCCNC(=N)N)NC1=O [SD15193] (Ac-SRLEEELRKRLTE-NH2; lactam 9-13) is 1.983

Now consider a different compound.
Value of Tube 2 (compound concentration) reported for the compound CC(=O)N[C@@H](CO)C(=O)N[C@@H](CCCNC(=N)N)C(=O)N[C@@H](CC(C)C)C(=O)N[C@@H](CCC(=O)O)C(=O)N[C@H]1CC(=O)NCCCC[C@@H](C(=O)N[C@@H](CCCNC(=N)N)C(=O)N[C@@H](CC(C)C)C(=O)N[C@H](C(=O)N[C@@H](CCC(=O)O)C(N)=O)[C@@H](C)O)NC(=O)[C@H](CCCNC(=N)N)NC(=O)[C@H](CC(C)C)NC(=O)[C@H](CCC(=O)O)NC1=O [SD15196] (Ac-SRLEDELRKRLTE-NH2; lactam 5-9) is 0.761

---

- Method: Plasma stability, human plasma
- Measurement setup: human plasma, 37° C., timepoint 6 h
Bridge positions count the residues as written; N and C are the ends. Peptide text beside a SMILES is read from it.
Reported property: Tube 1 (compound concentration)
One number for each entry.

Value of Tube 1 (compound concentration) reported for the molecule CC(=O)N[C@@H](CO)C(=O)N[C@@H](CCCNC(=N)N)C(=O)N[C@@H](CC(C)C)C(=O)N[C@@H](CCC(=O)O)C(=O)N[C@H]1CC(=O)NCCCC[C@@H](C(=O)N[C@@H](CCCNC(=N)N)C(=O)N[C@@H](CC(C)C)C(=O)N[C@H](C(=O)N[C@@H](CCC(=O)O)C(N)=O)[C@@H](C)O)NC(=O)[C@H](CCCNC(=N)N)NC(=O)[C@H](CC(C)C)NC(=O)[C@H](CCC(=O)O)NC1=O [SD15196] (Ac-SRLEDELRKRLTE-NH2; lactam 5-9) is 1.843

Now consider a different molecule.
Value of Tube 1 (compound concentration) reported for the molecule CC(=O)N[C@@H](CO)C(=O)N[C@@H](CCCNC(=N)N)C(=O)N[C@@H](CC(C)C)C(=O)N[C@@H](CCC(=O)O)C(=O)N[C@H]1CCC(=O)NCCCC[C@@H](C(=O)N[C@@H](CCCNC(=N)N)C(=O)N[C@@H](CCCNC(=N)N)C(=O)N[C@@H](CC(C)C)C(=O)N[C@H](C(=O)N[C@@H](CCC(=O)O)C(N)=O)[C@@H](C)O)NC(=O)[C@H](CC(C)C)NC(=O)[C@H](CCC(=O)O)NC1=O [SD15192] (Ac-SRLEEELKRRLTE-NH2; lactam 5-8) is 0.876
